// data source = patent US20090118332A1

molecular target: human Fatty Acid Synthase (Homo sapiens, UniProt P49327); construct: made in house; assay: Human FAS enzyme assay (decrease in NADPH fluorescence); assay type: biochemical; details: % inhibition at a concentration of 100 μmolar
Sequence (P49327 whole entry): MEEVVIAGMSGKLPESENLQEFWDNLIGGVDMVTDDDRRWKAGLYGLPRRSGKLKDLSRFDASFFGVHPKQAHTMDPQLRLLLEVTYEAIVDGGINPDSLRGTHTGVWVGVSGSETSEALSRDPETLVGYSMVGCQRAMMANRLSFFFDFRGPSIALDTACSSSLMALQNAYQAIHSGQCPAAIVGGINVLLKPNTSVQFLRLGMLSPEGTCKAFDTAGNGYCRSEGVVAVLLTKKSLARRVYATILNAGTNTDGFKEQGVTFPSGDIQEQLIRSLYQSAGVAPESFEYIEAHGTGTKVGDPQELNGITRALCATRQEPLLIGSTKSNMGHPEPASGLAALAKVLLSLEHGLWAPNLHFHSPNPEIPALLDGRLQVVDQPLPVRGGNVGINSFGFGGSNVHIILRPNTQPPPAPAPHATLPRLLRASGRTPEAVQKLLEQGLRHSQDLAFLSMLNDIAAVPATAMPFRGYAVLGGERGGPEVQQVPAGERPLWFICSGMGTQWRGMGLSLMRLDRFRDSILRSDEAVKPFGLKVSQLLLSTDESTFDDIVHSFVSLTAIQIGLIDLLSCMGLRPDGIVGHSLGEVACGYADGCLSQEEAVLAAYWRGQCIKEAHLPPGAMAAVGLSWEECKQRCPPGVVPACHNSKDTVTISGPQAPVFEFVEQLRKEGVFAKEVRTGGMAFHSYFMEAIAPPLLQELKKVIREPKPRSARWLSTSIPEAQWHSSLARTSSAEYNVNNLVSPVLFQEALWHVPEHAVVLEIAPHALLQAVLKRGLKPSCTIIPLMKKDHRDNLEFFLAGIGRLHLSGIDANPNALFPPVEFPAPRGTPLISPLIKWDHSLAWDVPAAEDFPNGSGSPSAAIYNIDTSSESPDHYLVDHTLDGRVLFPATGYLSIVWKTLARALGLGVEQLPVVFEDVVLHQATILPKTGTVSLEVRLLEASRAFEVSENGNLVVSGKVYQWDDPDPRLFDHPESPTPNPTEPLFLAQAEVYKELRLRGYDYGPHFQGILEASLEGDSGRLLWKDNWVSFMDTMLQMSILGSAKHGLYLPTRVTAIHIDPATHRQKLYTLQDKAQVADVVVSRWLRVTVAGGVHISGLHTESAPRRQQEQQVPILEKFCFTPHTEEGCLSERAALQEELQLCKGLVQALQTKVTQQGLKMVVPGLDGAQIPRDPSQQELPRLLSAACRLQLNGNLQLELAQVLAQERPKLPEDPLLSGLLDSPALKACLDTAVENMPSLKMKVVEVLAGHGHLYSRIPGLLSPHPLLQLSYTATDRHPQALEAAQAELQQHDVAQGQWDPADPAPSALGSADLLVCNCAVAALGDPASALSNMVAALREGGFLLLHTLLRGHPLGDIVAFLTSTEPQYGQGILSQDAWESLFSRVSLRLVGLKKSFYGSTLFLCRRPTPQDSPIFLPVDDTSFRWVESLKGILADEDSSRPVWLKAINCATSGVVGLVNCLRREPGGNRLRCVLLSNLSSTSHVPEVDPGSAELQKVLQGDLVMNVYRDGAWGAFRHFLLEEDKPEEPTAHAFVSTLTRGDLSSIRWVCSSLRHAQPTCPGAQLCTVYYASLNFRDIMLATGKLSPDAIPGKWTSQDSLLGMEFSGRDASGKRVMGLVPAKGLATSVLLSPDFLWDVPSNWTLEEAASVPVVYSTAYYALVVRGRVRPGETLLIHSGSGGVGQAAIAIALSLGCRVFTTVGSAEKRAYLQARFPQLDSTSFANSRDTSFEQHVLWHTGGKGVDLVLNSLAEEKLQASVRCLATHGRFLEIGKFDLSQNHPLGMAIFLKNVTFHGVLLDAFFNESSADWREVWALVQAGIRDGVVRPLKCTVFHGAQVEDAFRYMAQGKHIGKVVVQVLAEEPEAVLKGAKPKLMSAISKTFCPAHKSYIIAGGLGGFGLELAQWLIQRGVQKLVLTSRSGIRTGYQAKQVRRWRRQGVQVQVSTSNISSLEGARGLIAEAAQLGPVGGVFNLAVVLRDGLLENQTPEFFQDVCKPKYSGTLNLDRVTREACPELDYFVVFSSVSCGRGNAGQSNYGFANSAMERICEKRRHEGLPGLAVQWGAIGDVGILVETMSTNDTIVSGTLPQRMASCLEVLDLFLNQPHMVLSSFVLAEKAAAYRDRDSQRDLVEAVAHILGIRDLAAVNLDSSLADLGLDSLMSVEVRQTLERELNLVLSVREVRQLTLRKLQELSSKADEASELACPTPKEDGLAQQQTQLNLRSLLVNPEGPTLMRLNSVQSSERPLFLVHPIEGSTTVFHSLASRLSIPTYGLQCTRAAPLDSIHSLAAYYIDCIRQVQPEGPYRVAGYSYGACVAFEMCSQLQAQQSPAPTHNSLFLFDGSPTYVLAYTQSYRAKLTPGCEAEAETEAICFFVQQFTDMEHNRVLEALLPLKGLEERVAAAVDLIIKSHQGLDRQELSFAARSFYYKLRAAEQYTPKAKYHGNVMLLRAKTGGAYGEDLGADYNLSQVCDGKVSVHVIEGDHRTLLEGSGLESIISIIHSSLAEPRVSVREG
Catalogue of compounds with associated inhibition at 100 µM
metricName: inhibition at 100 µM (%)

compound="Cc1ccc(C(=O)N2CCC(c3ccc(C#N)cc3)CC2)cc1NC(=O)NCC(C)(C)C [Example 71]" testedtarget="human Fatty Acid Synthase (Homo sapiens, UniProt P49327)" experimentalresult=94.2
compound="Cc1ccc(C(=O)N2CCC(c3ccc(C#N)cc3)CC2)cc1NC(=O)NC(C)c1ccc(S(C)(=O)=O)cc1 (stereo not shown) [Example 98]" testedtarget="human Fatty Acid Synthase (Homo sapiens, UniProt P49327)" experimentalresult=91.9
compound="Cc1cc(C)c(C(=O)N2CCC(c3ccc(C#N)cc3)CC2)cc1NC(=O)NCCCS(C)(=O)=O [Example 294]" testedtarget="human Fatty Acid Synthase (Homo sapiens, UniProt P49327)" experimentalresult=92.2
compound="Cc1ccc(C(=O)N2CCC(c3ccc(C#N)cc3)CC2)cc1NC(=O)NCCN(C)C(=O)C(C)C [Example 271]" testedtarget="human Fatty Acid Synthase (Homo sapiens, UniProt P49327)" experimentalresult=93.4
compound="Cc1csc(CNC(=O)Nc2cc(C(=O)N3CCC(c4ccc(C#N)cc4)CC3)ccc2C)n1 [Example 264]" testedtarget="human Fatty Acid Synthase (Homo sapiens, UniProt P49327)" experimentalresult=90.1
compound="Cc1cc(CNC(=O)Nc2cc(C(=O)N3CCC(c4ccc(C#N)cc4)CC3)ccc2C)[nH]n1 [Example 292]" testedtarget="human Fatty Acid Synthase (Homo sapiens, UniProt P49327)" experimentalresult=95.6
compound="N#Cc1ccc(C2CCN(C(=O)c3ccc(C(F)(F)F)c(NC(=O)NCc4ccccc4)c3)CC2)cc1 [Example 280]" testedtarget="human Fatty Acid Synthase (Homo sapiens, UniProt P49327)" experimentalresult=90.6
